Tested on: Plasmodium falciparum
test.name: Antiplasmodial activity against Plasmodium falciparum NF54 erythrocytic stages assessed as parasite growth inhibition preincubated overnight followed by [G-3H]hypoxanthine addition and measured after 24 hrs by liquid scintillation counting method
Format: functional, organism-based
condition.info: read-out: pIC50 (converted)
// returns 0 (no) unless IC50 is strictly below 1000 nM, in which case 1 (yes)

>  <mol.smiles>
CC(C)c1ccc(C2=CC(=O)c3ccccc3C2=O)cc1

>  <class>
0 (no)

$$$$
>  <mol.smiles>
Cc1ccc(C2=CC(=O)c3ccccc3C2=O)cc1

>  <class>
0 (no)

$$$$
>  <mol.smiles>
O=C1C=C(c2ccc(C(F)(F)F)cc2)C(=O)c2ccccc21

>  <class>
0 (no)

$$$$
>  <mol.smiles>
O=C1C=C(c2ccc(F)nc2)C(=O)c2ccccc21

>  <class>
1 (yes)

$$$$
>  <mol.smiles>
O=C1C=C(c2ccc(C(=O)N3CCCCC3)cc2)C(=O)c2ccccc21

>  <class>
0 (no)

$$$$
>  <mol.smiles>
O=C1C=C(c2cc(F)cc(F)c2)C(=O)c2ccccc21

>  <class>
1 (yes)

$$$$
>  <mol.smiles>
O=C1C=C(c2ccc(Cl)cc2)C(=O)c2ccccc21

>  <class>
0 (no)

$$$$
>  <mol.smiles>
O=C1C=C(c2cnc(Cl)nc2)C(=O)c2ccccc21

>  <class>
1 (yes)

$$$$
>  <mol.smiles>
O=C1C=C(c2cnc3ccccc3c2)C(=O)c2ccccc21

>  <class>
1 (yes)

$$$$
>  <mol.smiles>
O=C1C=C(c2ccccc2)C(=O)c2ccccc21

>  <class>
0 (no)

$$$$
>  <mol.smiles>
CS(=O)(=O)Nc1cccc(C2=CC(=O)c3ccccc3C2=O)c1

>  <class>
0 (no)

$$$$
>  <mol.smiles>
O=C1C=C(c2ccc(F)cc2)C(=O)c2ccccc21

>  <class>
0 (no)

$$$$
